Experiment: Pharmacokinetics of PA-96 after single oral (p.o.) administration to mice
Type: in vivo, CD-1 mice
Conditions: both sexes, CD-1, mouse, whole blood, po; single p.o., 10 mg/kg, mice, mean ± SEM, n = 4
MEASURE: AUC(0-t) (ng·h/mL)

1) C=C(C)[C@@H]1CC=C(C)[C@@H](Sc2nc[nH]n2)[C@@H]1O: 300

###

Assay: Pharmacokinetics of PA-96 after single oral (p.o.) administration to mice
Type: in vivo, CD-1 mice
Conditions: both sexes, CD-1, mouse, whole blood, po; p.o. doses of 5 mg/kg and 10 mg/kg, mice; read-out: Time of maximum concentration after administration
MEASURE: Tmax

1. C=C(C)[C@@H]1CC=C(C)[C@@H](Sc2nc[nH]n2)[C@@H]1O: 5 to 10 min
